ASSAY: Metabolic stability in liver microsomes
Type: in vitro ADME
TEST PARAMETERS: mouse, pH 6.4, 30 minutes at 37°C
PROPERTY: remaining at 0.5 h, 1 µM (%)

| MOLECULE | PROPERTY | ENDPOINT UNIT | QUANTITATIVE RESULT |
| --- | --- | --- | --- |
| O=S(=O)(/C=C/c1ncccc1Cl)c1ccccc1F | remaining at 0.5 h, 1 µM | % | 19 |
| O=S(=O)(/C=C/c1ncccc1Cl)c1ccccc1Cl | remaining at 0.5 h, 1 µM | % | 4.5 |
| COc1ccc(S(=N)(=O)/C=C/c2ccccn2)cc1 (stereo not drawn) | remaining at 0.5 h, 1 µM | % | 59 |
